Where these numbers come from: the supplement of paper PMC8975748

Test system: Saccharomyces cerevisiae BY4741 SeMeCo community
Method Description: z-score of subpopulation abundance vs DMSO median, subpopulation auxotrophic for LU; higher = larger share of this subpopulation than in DMSO controls
Condition Summary: 10 µM; 24 h; SM minimal medium; subpopulation (auxotrophy): LU
Where a name gives a salt, the structure may show the parent alone.
z-score of subpopulation abundance below -0.1 gives false (0); z-score of subpopulation abundance at or above it gives true (1).

input: Has CCN(CC)CCNC(=O)c1cc(Cl)c(N)cc1OC [Metoclopramide HCl] a recorded z-score of subpopulation abundance greater than or equal to -0.1?
output: false (0)

====

Test system: Saccharomyces cerevisiae BY4741 SeMeCo community
Method Description: z-score of subpopulation abundance vs DMSO median, subpopulation auxotrophic for HL; higher = larger share of this subpopulation than in DMSO controls
Condition Summary: 10 µM; 24 h; SM minimal medium; subpopulation (auxotrophy): HL
Structures can show the parent of a compound that is named as a salt.
Below: a set of entries, each annotated with reported z-score of subpopulation abundance.
Form: value (number only, do not type unit).

Some molecules with recorded z-score of subpopulation abundance:
[[record]]
molecule = "COc1cccc2c1C(=O)c1c(O)c3c(c(O)c1C2=O)C[C@@](O)(C(C)=O)C[C@@H]3O[C@H]1C[C@H](N)[C@H](O)[C@H](C)O1 [Daunorubicin HCl]"
assayed_target = "Saccharomyces cerevisiae BY4741 SeMeCo community"
readout_number = 0.73

[[record]]
molecule = "C[C@H]1COc2c(C3(N)CC3)c(F)cc3c(=O)c(C(=O)O)cn1c23 [Pazufloxacin mesylate]"
assayed_target = "Saccharomyces cerevisiae BY4741 SeMeCo community"
readout_number = -0.07

[[record]]
molecule = "COc1cc2c(cc1OC)-c1cc3ccc(OC)c(OC)c3c[n+]1CC2"
assayed_target = "Saccharomyces cerevisiae BY4741 SeMeCo community"
readout_number = 1.04

[[record]]
molecule = "CN1[C@@H]2CC[C@H]1C[C@@H](OC(c1ccccc1)c1ccccc1)C2 [Benztropine mesylate]"
assayed_target = "Saccharomyces cerevisiae BY4741 SeMeCo community"
readout_number = 0.19

[[record]]
molecule = "Cc1cc(CC(C)CC(C)(C)C)n(O)c(=O)c1 (centres undefined)"
assayed_target = "Saccharomyces cerevisiae BY4741 SeMeCo community"
readout_number = 14.6

[[record]]
molecule = "CCCN1CCCC[C@H]1C(=O)Nc1c(C)cccc1C [Ropivacaine]"
assayed_target = "Saccharomyces cerevisiae BY4741 SeMeCo community"
readout_number = -0.66

[[record]]
molecule = "CCCCc1oc2ccccc2c1C(=O)c1cc(I)c(OCCN(CC)CC)c(I)c1 [Amiodarone HCl]"
assayed_target = "Saccharomyces cerevisiae BY4741 SeMeCo community"
readout_number = 3.55

[[record]]
molecule = "Cc1c(OCC(F)(F)F)ccnc1C[S@@+]([O-])c1nc2ccccc2[nH]1"
assayed_target = "Saccharomyces cerevisiae BY4741 SeMeCo community"
readout_number = 0.7

[[record]]
molecule = "Oc1c(Br)cc(Br)c2cccnc12"
assayed_target = "Saccharomyces cerevisiae BY4741 SeMeCo community"
readout_number = 10.5

[[record]]
molecule = "Cc1c(-c2ccc(O)cc2)n(Cc2ccc(OCCN3CCCCCC3)cc2)c2ccc(O)cc12 [Bazedoxifene HCl]"
assayed_target = "Saccharomyces cerevisiae BY4741 SeMeCo community"
readout_number = 1.1


input: Form: Entry = CC(C)(C)C(=O)OCOC(=O)[C@@H]1N2C(=O)[C@@H](/N=C/N3CCCCCC3)[C@H]2SC1(C)C [Pivmecillinam hydrochloride] | System = Saccharomyces cerevisiae BY4741 SeMeCo community | z-score of subpopulation abundance = ____
output: 0.29
